- Experimental system: Human Polθ polymerase domain (aa1820-2590) (Homo sapiens, UniProt O75417)
- Construct: Human Polθ polymerase domain (aa1820-2590) was expressed in E. coli; made in house; host or cells: E. coli
- Sequence (O75417 1820-2590): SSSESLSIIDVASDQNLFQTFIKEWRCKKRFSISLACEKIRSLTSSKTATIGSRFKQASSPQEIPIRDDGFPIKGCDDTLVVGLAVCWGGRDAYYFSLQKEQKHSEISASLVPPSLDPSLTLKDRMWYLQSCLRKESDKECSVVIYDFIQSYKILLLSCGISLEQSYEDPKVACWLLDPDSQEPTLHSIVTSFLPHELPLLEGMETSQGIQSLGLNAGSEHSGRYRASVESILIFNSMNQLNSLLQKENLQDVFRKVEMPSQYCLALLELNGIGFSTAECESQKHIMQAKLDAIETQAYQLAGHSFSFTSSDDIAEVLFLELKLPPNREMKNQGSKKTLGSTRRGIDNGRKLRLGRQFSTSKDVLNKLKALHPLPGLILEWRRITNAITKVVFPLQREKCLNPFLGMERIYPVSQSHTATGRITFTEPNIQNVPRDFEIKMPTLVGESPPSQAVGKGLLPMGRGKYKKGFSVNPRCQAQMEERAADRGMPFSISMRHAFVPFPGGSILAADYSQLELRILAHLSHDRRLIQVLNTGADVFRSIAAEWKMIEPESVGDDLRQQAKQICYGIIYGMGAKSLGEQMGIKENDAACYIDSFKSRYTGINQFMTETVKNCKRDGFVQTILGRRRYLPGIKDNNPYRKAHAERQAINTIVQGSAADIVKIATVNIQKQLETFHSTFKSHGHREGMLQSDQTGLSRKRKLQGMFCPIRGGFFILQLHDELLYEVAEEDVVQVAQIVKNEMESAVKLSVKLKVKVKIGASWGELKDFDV
- Protocol summary: Polθ Polymerase Domain Kinact/KI Assay (PicoGreen)
- Assay type: biochemical
- Measurement conditions: 0.8 nM Polθ, 100 nM DNA substrate, kobs vs [I] fit for 2-step covalent inhibitor
Value kind: Kinact/Kl (µM⁻¹ s⁻¹)

{"Compound": "C=CC(=O)N1C[C@@H]2CN(CCN3C[C@H]4CC(=O)N(c5cc(C(F)(F)F)cc(C)n5)[C@@H]4C(=O)N(C)c4cccc(F)c43)CCN2C[C@@H]1C (single isomer, unassigned)", "Kinact/Kl / µM⁻¹ s⁻¹": 0.60}

I: C=CC(=O)N1CCC(n2cnc(CN3C[C@H]4CC(=O)N(c5cc(C(F)(F)F)cc(C)n5)[C@@H]4C(=O)N(C)c4cccc(F)c43)n2)CC1
II: C=CC(=O)N1Cc2cc(CN3C[C@H]4CC(=O)N(c5cc(C(F)(F)F)cc(C)n5)[C@@H]4C(=O)N(C)c4cccc(C)c43)cnc2C1
Short answer wanted: higher Kinact/Kl, I or II ? Respond using the label that marks the chosen record.
II
(II: 1.85 µM⁻¹ s⁻¹, I: 0.46 µM⁻¹ s⁻¹)

Sourced from patent US20250230165A1
